target under test: glucagon receptor (GCGR) overexpressed CHO-K1 cells or human primary hepatocytes (Homo sapiens, UniProt P47871)
Construct: expressed in transfected cells; host or cells: GCGR overexpressed CHO-K1 cells or human primary hepatocytes (endogenous receptor)
procedure text: Glucagon cAMP inhibition assay (Cisbio cAMP Dynamic 2 HTRF)
Type: cell-based
condition details: inhibition of glucagon (EC50 concentration) induced cAMP production
Hi! Could you tag entries with IC50 cAMP below 0.7 µM as Yes, and those at or above as No? Much appreciated.

chem smiles: CC[C@H](C)[C@@H](COc1ccc(-c2ccc(Cl)cc2Cl)cc1)Nc1cnc(C(=O)NCCC(=O)O)cn1
class: Yes

chem smiles: CC(C)[C@@H](COc1ccc(-c2ccc(C(F)(F)F)cc2Cl)nc1)Nc1ccc(C(=O)NCCC(=O)O)cn1
class: No

chem smiles: CCCC[C@@H](COc1ccc(-c2ccc(C(F)(F)F)cc2Cl)c(Cl)c1)Nc1ccc(C(=O)NCCC(=O)O)cc1
class: Yes

chem smiles: CC(C)C[C@@H](COc1cc(F)c(-c2cc3ccccc3o2)c(F)c1)Nc1ccc(C(=O)NCCC(=O)O)cc1
class: No

chem smiles: CC(C)[C@@H](COc1ccc(-c2cc(Cl)cc(Cl)c2)nc1)Nc1ccc(C(=O)NCCC(=O)O)cc1
class: No

Say whether its IC50 cAMP is strictly beneath 0.7 µM. Entry: `CC(C)[C@@H](COc1cc(F)c(-c2ccc(C(F)(F)F)cc2)c(F)c1)Nc1ccc(C(=O)NCCC(=O)O)cc1`
Yes

Say whether its IC50 cAMP is strictly beneath 0.7 µM. Entry: `CC(C)[C@@H](COc1ccc(-c2nnc(C(F)(F)F)o2)cc1)Nc1ccc(C(=O)NCCC(=O)O)cc1`
No

###

target under test: glucagon receptor (GCGR) (Homo sapiens, UniProt P47871)
Construct: expressed in transfected cells; host or cells: CHO-K1 cells overexpressing GCGR (membrane fractions)
Sequence (P47871 26-477): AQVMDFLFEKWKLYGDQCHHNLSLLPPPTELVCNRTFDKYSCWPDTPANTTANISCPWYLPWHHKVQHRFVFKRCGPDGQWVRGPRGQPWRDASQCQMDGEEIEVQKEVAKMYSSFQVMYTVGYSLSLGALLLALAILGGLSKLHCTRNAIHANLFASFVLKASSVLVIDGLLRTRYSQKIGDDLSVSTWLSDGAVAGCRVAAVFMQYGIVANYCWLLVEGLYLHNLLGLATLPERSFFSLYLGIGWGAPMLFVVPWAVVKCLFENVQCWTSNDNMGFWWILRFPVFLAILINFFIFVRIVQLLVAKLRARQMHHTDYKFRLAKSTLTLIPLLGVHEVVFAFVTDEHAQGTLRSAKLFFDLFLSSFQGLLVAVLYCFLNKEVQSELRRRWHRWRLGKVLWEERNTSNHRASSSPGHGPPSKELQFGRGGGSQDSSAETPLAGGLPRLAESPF
procedure text: I125-glucagon binding assay (competition, GCGR membrane fractions)
Hi! Could you tag entries with IC50 below 200 nM as 1.0, and those at or above as 0.0? Much appreciated.

Please review the following examples before continuing.
chem smiles: CC[C@H](C)[C@@H](COc1nnc(-c2ccc(C(F)(F)F)cc2Cl)o1)Nc1ccc(C(=O)NCCC(=O)O)cc1
class: 0.0

chem smiles: O=C(NCc1nn[nH]n1)c1ccc(N[C@H](COc2ccc(-c3cc4ccccc4o3)cn2)c2ccccc2)cc1
class: 0.0

chem smiles: CC[C@H](C)[C@@H](COc1ccc(-c2ccc(C(F)(F)F)cc2Cl)cn1)Nc1ccc(C(=O)NCCC(=O)O)cc1
class: 1.0

chem smiles: CCOC(=O)CCNC(=O)c1ccc(N[C@H](Cc2ccc(-c3ccc(C(C)(C)C)cc3)cc2)C(=O)Nc2ccc(OC(F)(F)F)cc2)cc1
class: 0.0

Say whether its IC50 is strictly beneath 200 nM. Entry: `CC[C@H](C)[C@@H](COc1ccc(-c2ccc(C(F)(F)F)cc2F)c(C)n1)Nc1ccc(C(=O)NCCC(=O)O)cc1`
1.0

Say whether its IC50 is strictly beneath 200 nM. Entry: `O=C(O)CCNC(=O)c1ccc(N[C@H](Cc2ccc(-c3cc4ccccc4o3)cc2)C(=O)Nc2ccc(C(F)(F)F)cc2)cc1`
1.0

###

target under test: glucagon receptor (GCGR) overexpressed CHO-K1 cells or human primary hepatocytes (Homo sapiens, UniProt P47871)
Construct: expressed in transfected cells; host or cells: GCGR overexpressed CHO-K1 cells or human primary hepatocytes (endogenous receptor)
procedure text: Glucagon cAMP inhibition assay (Cisbio cAMP Dynamic 2 HTRF)
Assay type: cell-based
condition details: inhibition of glucagon (EC50 concentration) induced cAMP production
Hi! Could you tag entries with IC50 cAMP below 500 nM as true, and those at or above as false? Much appreciated.

compound: CC[C@H](C)[C@@H](COc1cc(C)c(-c2cc3ccccc3o2)c(C)c1)Nc1ccc(C(=O)NCCC(=O)O)cc1 [Compound 2-7]
class: true

compound: CC(C)[C@@H](COc1ccc(-c2nc3ccccc3s2)c(F)c1)Nc1ccc(C(=O)NCCC(=O)O)cc1 [Compound 8-25]
class: false

compound: CC[C@H](C)[C@@H](COc1ccc(-c2nnc(-c3ccccc3)o2)cc1)Nc1ccc(C(=O)NCCC(=O)O)cc1 [Compound 1-46]
class: false

compound: CC(C)[C@@H](COc1ccc(-c2ccc(F)cc2F)nn1)Nc1ccc(C(=O)NCCC(=O)O)cc1 [Compound 17-11]
class: false

Say whether its IC50 cAMP is strictly beneath 500 nM. Entry: CC(C)[C@@H](COc1ccc(-c2ccc(C(F)(F)F)cc2Cl)c(Cl)c1)Nc1ccc(C(=O)NCCC(=O)O)cc1 [Compound 3-4]
true
